target: CDK2/CycE (Homo sapiens); construct: GST; purchased ProQinase GmbH, Freiburg; host or cells: baculovirus-infected insect cells (Sf9); test: CDK2/CycE kinase assay; type: biochemical; settings: Table II; read-out: Inhibition IC50 CDK2/CycE
pIC50: −log10 of the molar value. Counter-ions that a name gives are not always drawn.
Metric Name: pIC50

O=S1(=O)NCCCC[C@@H](CO)Nc2nc(ncc2Br)Nc2cccc1c2; 5.70
O=S1(=O)NCCCCCNc2nc(ncc2Br)Nc2cccc1c2; 6.38
NS(=O)(=O)c1ccc2cc1OCCCCNc1nc(ncc1Br)N2; 6.89
O=S1(=O)NCCC(CO)Nc2nc(ncc2Br)Nc2cccc1c2 (single isomer, unassigned) [Example 1.3 (+) Enantiomer]; 7.64
NS(=O)(=O)c1ccc2cc1OCCCCCNc1nc(ncc1Br)N2; 5.62

I: O=S1(=O)N[C@H]2CC[C@@H](CC2)Nc2nc(ncc2Br)Nc2cccc1c2
II: Brc1cnc2nc1NCCCCOc1cccc(c1)N2
III: O=S1(=O)NCCC(CO)Nc2nc(ncc2Br)Nc2cccc1c2 (racemic) [Example 1.3, Hydrochloride]
IV: CCc1cnc2nc1NCCCCCNS(=O)(=O)c1cccc(c1)N2
V: O=S1(=O)NCCCCNc2nc(ncc2Br)Nc2cccc1c2
[in] Sequence the entries by pIC50, beginning with the highest number. Response format: the labels, sorted as the prompt asks.
[out] III, V, I, II, IV

* * *

biological target: VEGF Receptor tyrosine kinase-2 (Homo sapiens); construct: GST; made in house; host or cells: baculovirus-infected insect cells (Sf9); experiment: VEGF Rezeptor-2 kinase assay; format: biochemical; details: Table I; read-out: VEGF-R2 IC50
Sequence (P35968 20-1356): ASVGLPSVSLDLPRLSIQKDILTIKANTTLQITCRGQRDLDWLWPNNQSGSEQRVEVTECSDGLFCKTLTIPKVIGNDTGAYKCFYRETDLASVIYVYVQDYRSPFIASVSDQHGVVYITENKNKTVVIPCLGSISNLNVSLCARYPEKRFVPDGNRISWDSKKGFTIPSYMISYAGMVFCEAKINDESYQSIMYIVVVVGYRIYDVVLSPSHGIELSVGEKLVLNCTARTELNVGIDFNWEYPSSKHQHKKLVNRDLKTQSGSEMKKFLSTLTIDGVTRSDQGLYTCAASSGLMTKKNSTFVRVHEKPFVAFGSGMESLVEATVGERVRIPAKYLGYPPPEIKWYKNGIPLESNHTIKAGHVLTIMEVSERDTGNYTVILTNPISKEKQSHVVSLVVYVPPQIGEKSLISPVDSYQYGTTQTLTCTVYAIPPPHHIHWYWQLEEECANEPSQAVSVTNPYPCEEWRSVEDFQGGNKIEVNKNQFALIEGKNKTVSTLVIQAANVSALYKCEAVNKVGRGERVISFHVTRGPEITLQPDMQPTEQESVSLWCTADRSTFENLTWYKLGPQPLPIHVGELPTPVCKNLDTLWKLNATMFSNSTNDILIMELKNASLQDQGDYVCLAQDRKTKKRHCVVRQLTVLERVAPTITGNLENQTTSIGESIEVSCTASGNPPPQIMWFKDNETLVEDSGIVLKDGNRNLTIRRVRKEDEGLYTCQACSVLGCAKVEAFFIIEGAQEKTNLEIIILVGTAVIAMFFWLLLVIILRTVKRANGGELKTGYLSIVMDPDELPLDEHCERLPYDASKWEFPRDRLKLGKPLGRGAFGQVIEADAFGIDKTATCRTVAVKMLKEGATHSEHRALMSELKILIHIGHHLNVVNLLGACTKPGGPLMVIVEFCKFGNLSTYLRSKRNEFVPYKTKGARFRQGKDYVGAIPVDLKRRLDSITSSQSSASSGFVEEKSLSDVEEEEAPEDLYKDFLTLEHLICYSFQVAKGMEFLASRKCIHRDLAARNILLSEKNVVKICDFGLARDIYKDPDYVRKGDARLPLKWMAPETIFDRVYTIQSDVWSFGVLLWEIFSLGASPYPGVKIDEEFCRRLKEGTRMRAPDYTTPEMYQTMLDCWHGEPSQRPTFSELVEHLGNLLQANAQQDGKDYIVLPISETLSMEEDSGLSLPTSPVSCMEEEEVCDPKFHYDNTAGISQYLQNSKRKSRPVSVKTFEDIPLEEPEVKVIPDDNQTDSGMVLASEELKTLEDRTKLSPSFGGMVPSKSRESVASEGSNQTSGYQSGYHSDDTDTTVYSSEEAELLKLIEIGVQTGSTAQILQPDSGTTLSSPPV
pIC50: −log10 of the molar value. Counter-ions that a name gives are not always drawn.
Metric Name: pIC50

O=[N+]([O-])c1cc2cc(c1)S(=O)(=O)NCCCNc1nc(ncc1Br)N2 [Example 1.5, hydrochloride]; 7.16

A: O=S1(=O)NCCC(CO)Nc2nc(ncc2Br)Nc2cccc1c2 (single isomer, unassigned) [1.3 (+) Enantiomer]
B: Nc1cc2cc(c1)S(=O)(=O)NCCCNc1nc(ncc1Br)N2 [Example 1.4]
[in] In terms of reported pIC50, does A or B have the smaller number? Respond with the label that goes with your answer.
[out] A

* * *

target: CDK2/CycE (Homo sapiens, UniProt P24941); construct: GST; purchased ProQinase GmbH, Freiburg; host or cells: baculovirus-infected insect cells (Sf9); test: CDK2/CycE kinase assay; assay type: biochemical; settings: Table I; read-out: CDK2/CycE IC50
Where a name gives a salt, the structure may show the parent alone.
Metric Name: IC50 (µM)

Below are worked cases with known answers.
O=S1(=O)NCC(O)CNc2nc(ncc2Br)Nc2cccc1c2 (racemic); 0.51
NS(=O)(=O)c1ccc2cc1OCCCCCNc1nc(ncc1Br)N2; 2.4
NS(=O)(=O)c1ccc2cc1OCCCCNc1nc(ncc1Br)N2; 0.13
O=S1(=O)NCCCCNc2nc(ncc2Br)Nc2csc1c2; 0.065
O=S1(=O)NCCC(CO)Nc2nc(ncc2Br)Nc2cccc1c2 (racemic) [Example 1.3, Hydrochloride]; 0.023
O=S1(=O)NCCCCNc2nc(ncc2Br)Nc2cccc1c2; 0.32

1: O=S1(=O)NCCCOc2nc(ncc2Br)Nc2cccc1c2
2: O=S1(=O)NCCCCCNc2nc(ncc2Br)Nc2cccc1c2
3: OCC1CCCOc2cccc(c2)Nc2ncc(Br)c(n2)N1 (stereo not shown)
4: Cc1ccc2cc1S(=O)(=O)NCCCNc1nc(ncc1Br)N2
[in] List by increasing IC50. Response format: the labels, sorted as the prompt asks.
[out] 3, 1, 2, 4

* * *

target: CDK2/CycE (Homo sapiens, UniProt P24941); construct: GST; purchased ProQinase GmbH, Freiburg; host or cells: baculovirus-infected insect cells (Sf9); test: CDK2/CycE kinase assay; type: biochemical; details: Table I; read-out: CDK2/CycE IC50
pIC50: −log10 of the molar value.
Metric Name: pIC50

Below are worked cases with known answers.
O=C1NCCCNc2nc(ncc2Br)Nc2cccc(c2)N1 [Example 10.0]; 6.92
O=S1(=O)NCCC(CO)Nc2nc(ncc2Br)Nc2cccc1c2 (single isomer, unassigned) [1.3 (+) Enantiomer]; 7.64

1: O=S1(=O)NCCCC[C@@H](CO)Nc2nc(ncc2Br)Nc2cccc1c2 [Example 14.4]
2: O=S1(=O)N[C@H]2CC[C@@H](CC2)Nc2nc(ncc2Br)Nc2cccc1c2 [Example 14.15]
[in] For the two items 1 and 2 , which reports the higher pIC50 value? Respond with the label that goes with your answer.
[out] 2

* * *

biological target: CDK1/CycB (Homo sapiens, UniProt P06493); construct: GST; assay: CDK1/CycB kinase assay; settings: Table I
Sequence (P06493 whole entry): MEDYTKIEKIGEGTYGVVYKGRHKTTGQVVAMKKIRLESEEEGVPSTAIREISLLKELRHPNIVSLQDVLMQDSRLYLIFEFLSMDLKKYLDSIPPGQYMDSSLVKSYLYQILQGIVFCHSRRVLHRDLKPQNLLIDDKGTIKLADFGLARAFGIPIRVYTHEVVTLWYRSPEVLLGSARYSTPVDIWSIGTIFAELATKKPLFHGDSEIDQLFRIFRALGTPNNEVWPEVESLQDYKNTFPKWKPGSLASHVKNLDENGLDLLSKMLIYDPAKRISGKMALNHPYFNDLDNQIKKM
Sequence (P14635 whole entry partner): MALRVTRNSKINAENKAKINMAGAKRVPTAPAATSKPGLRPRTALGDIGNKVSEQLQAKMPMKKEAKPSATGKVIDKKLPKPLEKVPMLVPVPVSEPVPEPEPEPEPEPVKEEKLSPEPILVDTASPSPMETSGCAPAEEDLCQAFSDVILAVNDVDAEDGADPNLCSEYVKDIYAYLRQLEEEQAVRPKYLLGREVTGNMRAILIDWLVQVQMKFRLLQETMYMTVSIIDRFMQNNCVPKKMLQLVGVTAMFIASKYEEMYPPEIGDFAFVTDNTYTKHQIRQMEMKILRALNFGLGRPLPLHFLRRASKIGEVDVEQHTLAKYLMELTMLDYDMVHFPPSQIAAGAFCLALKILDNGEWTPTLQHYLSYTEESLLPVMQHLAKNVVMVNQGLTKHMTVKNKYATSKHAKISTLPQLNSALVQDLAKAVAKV
pIC50: −log10 of the molar value. Where a name gives a salt, the structure may show the parent alone.
Metric Name: pIC50

Cc1ccc2cc1S(=O)(=O)NCCCNc1nc(ncc1Br)N2 [Example 14.16]; 6.52
O=S1(=O)NCCCNc2nc(ncc2Br)Nc2cccc1c2 [Example 1.1]; 7.70

a: O=S1(=O)NCCCCNc2nc(ncc2Br)Nc2cccc1c2 [Example 14.6]
b: N#Cc1cnc2nc1NCCCNS(=O)(=O)c1cccc(c1)N2 [Example 5.0]
c: O=[N+]([O-])c1cc2cc(c1)S(=O)(=O)NCCCNc1nc(ncc1Br)N2 [Example 1.5, hydrochloride]
[in] Sequence the entries by pIC50, beginning with the highest number. Response format: the labels, sorted as the prompt asks.
[out] c, a, b

* * *

Target: CDK1/CycB (Homo sapiens)
Construct: GST
Assay: CDK1/CycB kinase assay
Conditions: Table I
Text: Recombinant CDK1- and CycB-GST fusion proteins, purified from baculovirus-infected insect cells (Sf9), were purchased from ProQinase GmbH, Freiburg. Histone IIIS, which was used as a kinase substrate, is commercially available from the Sigma Company. […]
Metric Name: IC50 (µM)

O=S1(=O)NCCCCCNc2nc(ncc2Br)Nc2cccc1c2; 0.2
OCC1CCCOc2cccc(c2)Nc2ncc(Br)c(n2)N1 (stereo not shown); 0.08

A: NS(=O)(=O)c1ccc2cc1OCCCCNc1nc(ncc1Br)N2
B: O=C1NCCCNc2nc(ncc2Br)Nc2cccc(c2)N1
[in] For the two items A and B , which reports the higher IC50 value? Respond with the label that goes with your answer.
[out] B
